Test: 5-day intravenous toxicity study in mice
Type: in vivo, ICR mice
Details: female, ICR, mouse, in vivo; females; read-out: no-observed-adverse-effect level (NOAEL)
Result Type: NOAEL at 5 days (mg/kg/day)
State just the number; it will be interpreted in mg/kg/day.

Problem: Name the reported NOAEL at 5 days value associated with the compound COc1ccc(C(=O)OC2C(OC3C(O)COC(O[C@H]4C[C@H]5[C@@H]6CC=C7C[C@@H](O)CC[C@]7(C)[C@H]6CC[C@]5(C)[C@@]4(O)[C@H](C)C(=O)CCC(C)C)C3OC(C)=O)OCC(O)C2O)cc1 (stereo partly shown)
Solution: 0.04

---

Experiment: 5-day intravenous toxicity study in mice
Assay type: in vivo, ICR mice
Conditions: male, ICR, mouse, in vivo; males, 5 daily doses, based on pathology; read-out: NOAEL
Experimental: To assess the toxicity of orsaponin of the present invention, a 5-day intravenous study with Orsaponin in mice was conducted. […] Five mice from each group were scheduled to be sacrificed 3, 14, and 42 days after the last dose was administered. […] Individual animal organ weight was also measured. […]
Result Type: NOAEL at 5 days (mg/kg/day)
State just the number; it will be interpreted in mg/kg/day.

Problem: Name the reported NOAEL at 5 days value associated with the molecule COc1ccc(C(=O)OC2C(OC3C(O)COC(O[C@H]4C[C@H]5[C@@H]6CC=C7C[C@@H](O)CC[C@]7(C)[C@H]6CC[C@]5(C)[C@@]4(O)[C@H](C)C(=O)CCC(C)C)C3OC(C)=O)OCC(O)C2O)cc1 (stereo partly shown)
Solution: 0.01
